- Assayed target: Ataxin-2 (Homo sapiens)
- Experimental protocol: qHTS for Inhibitors of ATXN expression.
- Type: functional
Out of some 400,000 compounds screened, about 2,100 (0.53%) were called active. Another 14% or so got no clear call; they are omitted. No rule for the calls is given here. This is one part of a sample in which actives are shown more often than they occur.
Your response should consist of one outcome taken from active, inactive

Solved entries (count: 3):
>>> assigned_category("CCNc1nc(SCC(N)=O)nc2sc3c(c12)CCN(C)C3")
"inactive"
>>> assigned_category("N=c1oc2cc(O)ccc2cc1C(=O)Nc1ccc(Br)cc1")
"inactive"
>>> assigned_category("COc1ccc(-c2csc(NC(=O)CSc3n[nH]c(N)n3)n2)cc1")
"inactive"

We next turn to a different molecule, shown below.
GET /call?item= COc1ccc(-c2c3c(nc4sc(C(=O)Nc5ccccc5)c(N)c24)CCC3)cc1 returns the recorded outcome of this test.
inactive

----------
- Assayed target: Ataxin-2 (Homo sapiens)
- Experimental protocol: qHTS for Inhibitors of ATXN expression.
- Format: functional
In all, about 400,000 compounds went through this assay and about 2,100 (0.53%) were called active. Inconclusive results (about 14%) are left out. The rule behind the calls is not given here. Shown is part of a subset that was picked to be rich in actives.
Your response should consist of one outcome taken from T (active), F (inactive)

Solved entries (count: 4):
>>> assigned_category("CCc1cc(CNC(=O)CC2C(=O)NCCN2Cc2ccc(-c3ccccc3)cc2)on1 (stereo unspecified)")
"T"
>>> assigned_category("COC(=O)CCNC(=O)c1ccc2nc(Cc3ccc(OC)cc3)oc2c1")
"F"
>>> assigned_category("O=C(CNC(=O)c1ccccc1F)NCc1ccccn1")
"F"
>>> assigned_category("COC(=O)[C@@H]1C[C@]2(OC(=O)c3ccccc3)C=CC(=O)C[C@@H]2N1C(=O)OCc1ccccc1")
"T"

We next turn to a different compound, shown below.
GET /call?item= O=C(O)c1ccc(Nc2nc(-c3cc4ccccc4oc3=O)cs2)cc1O returns the recorded outcome of this test.
F

----------
- Assayed target: Ataxin-2 (Homo sapiens)
- Experimental protocol: qHTS for Inhibitors of ATXN expression.
- Format: functional
In all, about 400,000 compounds went through this assay and about 2,100 (0.53%) were called active. Roughly 14% stayed inconclusive and do not appear here. No rule for the calls is given here. This excerpt belongs to a sample that is enriched for actives.
Your response should consist of one outcome taken from yes for active, no for inactive

>>> assigned_category("NC(CCc1ccccc1)c1csc(NC(=O)Nc2cccc(C(F)(F)F)c2)n1 (stereo not given)")
"yes"

GET /call?item= Cc1c(O)c(CN2CCCC2)cc2c3c(c(=O)oc12)CCC3 returns the recorded outcome of this test.
no

GET /call?item= N#CC1=C(N)Oc2cc(N)ccc2C1c1ccccc1F (stereo not given) returns the recorded outcome of this test.
no

GET /call?item= CCCCCCSc1ccc(-c2nc3cnccn3c2NCCCC)cc1 returns the recorded outcome of this test.
no

GET /call?item= CCN1CCN(c2cc(C)c3cc(NC(=O)c4cccc(OC)c4)ccc3n2)CC1 returns the recorded outcome of this test.
no

GET /call?item= Cc1ccc(S(=O)(=O)CCC(=O)OCCOc2ccc(Br)cc2)cc1 returns the recorded outcome of this test.
no

GET /call?item= O=C(Nc1cccc(Cl)c1)Nc1sccc1-c1nc2ccccc2s1 returns the recorded outcome of this test.
no

GET /call?item= CCOc1ccc(N(C)S(=O)(=O)c2ccc3ncc(C(=O)NCC(OC)OC)c(O)c3c2)cc1 returns the recorded outcome of this test.
no

----------
- Assayed target: Ataxin-2 (Homo sapiens) (UniProt Q99700)
- Sequence (Q99700 whole entry): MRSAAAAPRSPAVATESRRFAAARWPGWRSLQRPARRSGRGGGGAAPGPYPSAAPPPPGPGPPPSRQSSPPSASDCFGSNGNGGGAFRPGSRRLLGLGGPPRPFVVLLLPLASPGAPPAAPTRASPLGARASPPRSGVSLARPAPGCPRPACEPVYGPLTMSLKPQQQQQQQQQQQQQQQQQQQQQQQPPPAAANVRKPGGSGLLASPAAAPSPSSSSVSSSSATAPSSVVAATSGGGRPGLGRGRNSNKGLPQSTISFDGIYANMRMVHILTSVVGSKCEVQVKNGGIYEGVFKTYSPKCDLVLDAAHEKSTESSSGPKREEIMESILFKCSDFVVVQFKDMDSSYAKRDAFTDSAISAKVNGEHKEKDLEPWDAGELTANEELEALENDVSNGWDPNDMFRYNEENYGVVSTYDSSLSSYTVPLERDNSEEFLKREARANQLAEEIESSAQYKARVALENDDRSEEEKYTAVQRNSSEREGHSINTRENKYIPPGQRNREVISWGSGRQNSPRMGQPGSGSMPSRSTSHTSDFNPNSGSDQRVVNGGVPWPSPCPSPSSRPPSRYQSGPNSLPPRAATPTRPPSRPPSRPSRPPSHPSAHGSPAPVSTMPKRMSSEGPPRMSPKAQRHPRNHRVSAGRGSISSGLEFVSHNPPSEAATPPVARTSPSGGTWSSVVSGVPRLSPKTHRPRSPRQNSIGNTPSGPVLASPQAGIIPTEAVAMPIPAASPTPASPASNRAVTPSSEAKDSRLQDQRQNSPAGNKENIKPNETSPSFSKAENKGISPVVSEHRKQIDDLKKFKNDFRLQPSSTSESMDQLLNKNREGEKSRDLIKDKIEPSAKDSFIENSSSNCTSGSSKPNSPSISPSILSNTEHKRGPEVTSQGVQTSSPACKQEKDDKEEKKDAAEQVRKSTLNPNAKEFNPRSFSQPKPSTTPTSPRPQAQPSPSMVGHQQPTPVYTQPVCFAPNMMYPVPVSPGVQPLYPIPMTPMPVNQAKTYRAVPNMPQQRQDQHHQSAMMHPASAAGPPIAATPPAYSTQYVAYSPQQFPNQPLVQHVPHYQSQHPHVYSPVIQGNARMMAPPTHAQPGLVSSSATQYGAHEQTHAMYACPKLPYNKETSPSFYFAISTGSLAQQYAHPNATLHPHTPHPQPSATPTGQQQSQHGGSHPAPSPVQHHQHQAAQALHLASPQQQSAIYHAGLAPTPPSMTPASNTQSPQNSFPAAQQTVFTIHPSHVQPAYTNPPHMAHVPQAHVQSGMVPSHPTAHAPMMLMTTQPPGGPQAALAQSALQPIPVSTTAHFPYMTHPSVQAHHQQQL
- Experimental protocol: qHTS for Inhibitors of ATXN expression.
- Type: functional
About 2,100 (0.53%) of roughly 400,000 compounds were called active. Another 14% or so got no clear call; they are omitted. How the calls were made is not given here. Shown is part of a subset that was picked to be rich in actives.
Your response should consist of one outcome taken from True (active), False (inactive)

Solved entries (count: 3):
>>> assigned_category("COc1cccc2c1c(NC(=O)c1cc(C)on1)nn2C")
"False"
>>> assigned_category("COc1cc2c(C#CCCCO)c(-c3ccc(C#N)cc3)oc(=O)c2cc1OC")
"False"
>>> assigned_category("Cc1cc(C)nc(OC(C(=O)O)C(OCCc2ccccc2)(c2ccc(F)cc2)c2ccc(F)cc2)n1 (centres undefined)")
"False"

GET /call?item= c1ccc(-c2nc(N3CCCC3)nc3ccccc23)cc1 returns the recorded outcome of this test.
False

GET /call?item= C=CC[C@H](CC(=O)N(CCO)Cc1ccccc1)C(=O)N[C@@H](COC(=O)[C@@H](CC=C)Cc1ccc(F)cc1)Cc1ccccc1 returns the recorded outcome of this test.
True

GET /call?item= Cc1cc(C)n2nc(C(=O)OCC(=O)NC3CCS(=O)(=O)C3)nc2n1 (centres undefined) returns the recorded outcome of this test.
False

GET /call?item= Cc1cccc(C2=NN(c3ccccc3)[C@H](CO)[C@H]2c2ccc(Cl)cc2)c1 returns the recorded outcome of this test.
False

GET /call?item= COc1cccc2cc(C(=O)C3=C(O)C(=O)N(CCN(C)C)C3c3ccc(Cl)cc3)oc12 (centres undefined) returns the recorded outcome of this test.
False

GET /call?item= C=CC[C@@H](CC(=O)N(CCO)Cc1ccccc1)C(=O)N[C@H](COC(=O)[C@@H](CC=C)Cc1ccc(F)cc1)Cc1ccccc1 returns the recorded outcome of this test.
True

----------
- Assayed target: Ataxin-2 (Homo sapiens)
- Experimental protocol: qHTS for Inhibitors of ATXN expression.
- Assay type: functional
In all, about 400,000 compounds went through this assay and about 2,100 (0.53%) were called active. Roughly 14% stayed inconclusive and do not appear here. How the calls were made is not given here. The entries come from a sample that favours actives as a whole.
Your response should consist of one outcome taken from T for active, F for inactive

>>> assigned_category("COc1c(Br)cc(/C=N/n2c(S)nnc2-c2ccccc2)c(O)c1Br")
"F"
>>> assigned_category("CCOc1cccc(/C=N/NC(=O)CC2C(=O)NN=C2C)c1O (stereo not given)")
"F"
>>> assigned_category("COC(=O)Cc1cnc(NC(=O)CSc2nc(O)cc(C(C)C)n2)s1")
"F"
>>> assigned_category("O[C@@H]1[C@@H]2c3cc4c(cc3CN3CCC(=C[C@@H]1O)[C@H]23)OCO4")
"T"

We next turn to a different compound, shown below.
GET /call?item= CCc1ccccc1-n1c(C)nc2cc(C(=O)NCCc3ccc(Cl)cc3)ccc21 returns the recorded outcome of this test.
T

----------
- Assayed target: Ataxin-2 (Homo sapiens)
- Experimental protocol: qHTS for Inhibitors of ATXN expression.
- Assay type: functional
Hit rate of the full screen: of about 400,000 compounds, about 2,100 (0.53%) were called active. Inconclusive results (about 14%) are left out. The rule behind the calls is not given here. Shown is part of a subset that was picked to be rich in actives.
Your response should consist of one outcome taken from yes = active, no = inactive

Solved entries (count: 3):
>>> assigned_category("Cc1csc(NC(=O)c2sc3nc(-c4cccs4)ccc3c2N)n1")
"no"
>>> assigned_category("Cc1c(-c2ccccc2)c(=O)oc2c(CN3CCOCC3)c(O)ccc12")
"no"
>>> assigned_category("CCn1c2ccccc2c2cc(CN3CCOc4ccc(C(O)c5cccnc5)cc4C3)ccc21 (stereo unspecified)")
"yes"

GET /call?item= Nc1ccc2nc3c(=O)n(CCc4ccccc4)c(=O)[nH]c3nc2c1 returns the recorded outcome of this test.
no

GET /call?item= CCC(C)c1ccc(S(=O)(=O)N2CCN(C(C)CC(=O)O)CC2)cc1 (stereo unspecified) returns the recorded outcome of this test.
no

GET /call?item= COc1cccc2sc3ccc(NCc4ccc5c(c4)OCO5)cc3c(=O)c12 returns the recorded outcome of this test.
no

GET /call?item= O=C1C=C(c2c(O)ccc3ccccc23)c2ccccc2C1=O returns the recorded outcome of this test.
yes

GET /call?item= O=C1c2cccc3c(O)ccc(c23)C(=O)N1Cc1ccccc1 returns the recorded outcome of this test.
no

GET /call?item= CC(NCC(O)COCCC12CC3CC(CC(C3)C1)C2)c1ccccc1 (stereo unspecified) returns the recorded outcome of this test.
yes

GET /call?item= c1ccc(-c2nc(CN3CCN(c4ccccn4)CC3)c[nH]2)cc1 returns the recorded outcome of this test.
no

GET /call?item= Cc1cccc(C)c1OCC(O)CNC(C)c1ccccc1 (stereo unspecified) returns the recorded outcome of this test.
no

----------
- Assayed target: Ataxin-2 (Homo sapiens) (UniProt Q99700)
- Experimental protocol: qHTS for Inhibitors of ATXN expression.
- Format: functional
Hit rate of the full screen: of about 400,000 compounds, about 2,100 (0.53%) were called active. About 14% were inconclusive and are not listed. Shown is part of a subset that was picked to be rich in actives.
Result type: Potency

Worked examples follow.
>>> value_reported("COc1ccc(CCn2c(=S)[nH]c3cc(C(=O)N4CCOCC4)ccc3c2=O)cc1OC")
"inactive"
>>> value_reported("CCOC(=O)C1CCCN(C(=O)c2ccc(Cn3c(=S)[nH]c4cc(C(=O)OC)ccc4c3=O)cc2)C1 (centres undefined)")
"inactive"
>>> value_reported("CCCCc1c(-c2cccc(Cl)c2)ncn1CCc1ccccc1OC")
"31.6 µM (active)"
>>> value_reported("COc1ccc2nc(N3CCC(O)CC3)c(C#N)cc2c1")
"inactive"
>>> value_reported("COc1ccc(CCn2c(=S)[nH]c3cc(C(=O)NCc4ccco4)ccc3c2=O)cc1OC")
"28.2 µM (active)"
>>> value_reported("COc1ccccc1[C@H]1C(c2cccc(Cl)c2)=NN(c2ccccc2)[C@@H]1CO")
"inactive"

Entry under review: COc1ccc(CCn2c(=S)[nH]c3ccc(N4CCOCC4)cc3c2=O)cc1OC . Reported Potency?
inactive

Entry under review: CC(C)c1ccc(CNc2nc(NCC3CC3)nc3ccsc23)cc1 . Reported Potency?
28.2 µM (active)

Entry under review: CCCCc1c(-c2cccc(OC)c2)ncn1CCc1ccccc1OC . Reported Potency?
39.8 µM (active)

Entry under review: Cc1cccn2c(=O)c3cc(C(=O)NCC4CCCO4)c(=N)n(C4CCCC4)c3nc12 (centres undefined) . Reported Potency?
inactive

Entry under review: C[C@@H]1CN([C@H](C)CO)C(=O)Cc2cc(NS(=O)(=O)c3ccc(Cl)cc3)ccc2O[C@H]1CN(C)Cc1ccc(C(F)(F)F)cc1 . Reported Potency?
25.1 µM (active)

Values compiled from ChEMBL document CHEMBL1201862.
